Tgt: Recombinant human LSD1 (Homo sapiens)
Run description: LSD1 inhibition assay (HTRF LSD1 Histone H3K4 mono-demethylation assay, me1->me0)
Type: biochemical
Particulars: 20 nM recombinant human LSD1, 95 nM H3K4(me1) biotinylated peptide, 15 min preincubation, 60 min at 25° C., read-out: LSD1 inhibition IC50 (nM range)
Recorded metric: IC50

// below: answered molecules
{"Molecule": "N#Cc1ccc(-c2cc(CC3CNCCO3)ccc2-c2ccn3cnnc3c2)cc1F (centres unmarked) [Example 157]", "IC50": "> 1000 nM"}
{"Molecule": "N#Cc1ccc(-c2cccc(CN3C4CNCC3C4)c2C2CC2)cc1F [Example 274]", "IC50": "100 to 1000 nM"}
{"Molecule": "N#Cc1ccc(-c2cccc(CN3C[C@]4(N)CC[C@H]3C4)c2-c2ocnc2F)cc1F [Example 174]", "IC50": "10 to 25 nM"}
{"Molecule": "N#Cc1ccc(-c2cc(CN3[C@@H]4CC[C@H]3[C@@H](N)C4)ccc2-c2ccsn2)cc1F (racemic) [Example 252]", "IC50": "25 to 100 nM"}
{"Molecule": "Cn1ncc2cc(-c3ccc(CC4CNCCO4)cc3-c3ccc(C#N)c(F)c3)cnc21 (centres unmarked) [Example 56]", "IC50": "25 to 100 nM"}
{"Molecule": "COc1ccc(-c2ccc(CC3CNCCO3)cc2-c2ccc(C#N)c(F)c2)cn1 (centres unmarked) [Example 80]", "IC50": "100 to 1000 nM"}
{"Molecule": "COc1ccc(-c2c(C)cc(CC3CNCCO3)cc2-c2ccc(C#N)c(F)c2)cn1 (centres unmarked) [Example 85]", "IC50": "100 to 1000 nM"}
{"Molecule": "N#Cc1ccc(-c2cccc(CC3CNCCO3)c2C2CC2)cc1F (centres unmarked) [Example 42]", "IC50": "100 to 1000 nM"}

Here is another molecule to look at.
// query So what IC50 did N#Cc1ccc(-c2cc(CC3CNCCO3)ccc2N2CC(CO)C2)cc1F (centres unmarked) [Example 137] get with Recombinant human LSD1 (Homo sapiens)?
// result 100 to 1000 nM

---

Tgt: Recombinant human LSD1 (Homo sapiens, UniProt O60341)
Run description: LSD1 inhibition assay (HTRF LSD1 Histone H3K4 mono-demethylation assay, me1->me0)
Type: biochemical
Particulars: 20 nM recombinant human LSD1, 95 nM H3K4(me1) biotinylated peptide, 15 min preincubation, 60 min at 25° C., read-out: LSD1 inhibition IC50 (nM range)
Recorded metric: IC50

// below: answered molecules
{"Molecule": "COCc1ccc(-c2ccc(CC3CNCCO3)cc2-c2ccc(C#N)c(F)c2)c(F)c1 (stereo not shown) [Example 68]", "Tgt": "Recombinant human LSD1 (Homo sapiens, UniProt O60341)", "Recorded metric": "IC50", "Value measured": "25 to 100 nM"}
{"Molecule": "Cc1ncoc1-c1c(CC2CNCCO2)cccc1-c1ccc(C#N)c(F)c1 (stereo not shown) [Example 51]", "Tgt": "Recombinant human LSD1 (Homo sapiens, UniProt O60341)", "Recorded metric": "IC50", "Value measured": "25 to 100 nM"}
{"Molecule": "N#Cc1ccc(-c2cccc(CN3CCCC(N)C3)c2Cl)cc1F (stereo not shown) [Example 332]", "Tgt": "Recombinant human LSD1 (Homo sapiens, UniProt O60341)", "Recorded metric": "IC50", "Value measured": "100 to 1000 nM"}

Here is another molecule to look at.
// query Which IC50 value belongs to CN1CCN(Cc2ccc(N3CCC3)c(-c3ccc(C#N)c(F)c3)c2)CC1 [Example 296] ?
// result > 1000 nM

---

Tgt: Recombinant human LSD1 (Homo sapiens)
Run description: LSD1 inhibition assay (HTRF LSD1 Histone H3K4 mono-demethylation assay, me1->me0)
Format: biochemical
Particulars: 20 nM recombinant human LSD1, 95 nM H3K4(me1) biotinylated peptide, 15 min preincubation, 60 min at 25° C., read-out: LSD1 inhibition IC50 (nM range)
Consider the following molecules and their measured IC50 readings.

// below: answered molecules
{"Molecule": "Cc1cc(CC2CNCCO2)c(-c2cncs2)c(-c2ccc(C#N)cc2)c1 (stereo not drawn)", "Tgt": "Recombinant human LSD1 (Homo sapiens)", "IC50": "10 to 25 nM"}
{"Molecule": "N#Cc1ccc(-c2cccc(CN3CCC4CC3CN4)c2C2CC2)cc1F (stereo not drawn)", "Tgt": "Recombinant human LSD1 (Homo sapiens)", "IC50": "10 to 25 nM"}
{"Molecule": "N#Cc1ccc(-c2cc(CN3[C@@H]4CC[C@H]3[C@@H](N)C4)ccc2N2CC3(CC3)C2)cc1F (racemic)", "Tgt": "Recombinant human LSD1 (Homo sapiens)", "IC50": "25 to 100 nM"}

// query Which IC50 value belongs to COC1CCN(c2ccc(CC3CNCCO3)cc2-c2ccc(C#N)c(F)c2)CC1 (stereo not drawn) ?
// result 100 to 1000 nM

// query Which IC50 value belongs to N#Cc1ccc(-c2cc(CC3CNCCO3)ccc2N2CCC(O)(C3CC3)CC2)cc1F (stereo not drawn) ?
// result 25 to 100 nM

---

Consider the following compounds and their measured IC50 readings.
Tgt: Recombinant human LSD1 (Homo sapiens, UniProt O60341)
Run description: LSD1 inhibition assay (HTRF LSD1 Histone H3K4 mono-demethylation assay, me1->me0)
Assay type: biochemical
Particulars: 20 nM recombinant human LSD1, 95 nM H3K4(me1) biotinylated peptide, 15 min preincubation, 60 min at 25° C., read-out: LSD1 inhibition IC50 (nM range)
Where a name gives a salt, the structure may show the parent alone.

// below: answered compounds
{"Compound": "N#Cc1ccc(-c2cccc(C[C@H]3CNCCO3)c2-c2ccns2)cc1 (single isomer, unassigned) [Example 5, hydrochloride]", "IC50": "10 to 25 nM"}
{"Compound": "CN[C@]12CC[C@H](C1)N(Cc1cccc(-c3ccc(C#N)c(F)c3)c1C1CC1)C2", "IC50": "10 to 25 nM"}
{"Compound": "N#Cc1ccc(-c2cccc(C[C@@H]3CNCCO3)c2-c2cncs2)cc1F (single isomer, unassigned)", "IC50": "10 to 25 nM"}

// query Which IC50 value belongs to Cn1cc2cc(-c3ccc(CC4CNCCO4)cc3-c3ccc(C#N)c(F)c3)ccc2n1 (centres unmarked) ?
// result 100 to 1000 nM

// query Which IC50 value belongs to N#Cc1ccc(-c2cccc(CN3CCC[C@H]4NCC[C@H]43)c2-c2cncs2)cc1F (racemic) ?
// result 10 to 25 nM

// query Which IC50 value belongs to N#Cc1ccc(-c2cccc(CN3[C@@H]4CC[C@H]3[C@@H](N)C4)c2C2CC2)cc1F (single isomer, unassigned) [Example 261] ?
// result 100 to 1000 nM

// query Which IC50 value belongs to N#Cc1ccc(-c2ccc(F)c(CN3[C@@H]4CC[C@H]3[C@@H](N)C4)c2-c2ccns2)cc1F (racemic) ?
// result < 10 nM

// query Which IC50 value belongs to `N#Cc1ccc(-c2cccc(CN3CC[C@@H]4NCCC[C@@H]43)c2C2CC2)cc1F` ?
// result 100 to 1000 nM

// query Which IC50 value belongs to `N#Cc1ccc(-c2cccc(CN3CC(F)(F)[C@@]34CCNC4)c2Cl)cc1F` ?
// result > 1000 nM

// query Which IC50 value belongs to N#Cc1ccc(-c2cccc(CC3CNCCO3)c2N2CCC2)cc1 (centres unmarked) ?
// result 100 to 1000 nM

// query Which IC50 value belongs to `N#Cc1ccc(-c2cccc(CN3C[C@@H]4CNC[C@H]4C3)c2-c2cncs2)cc1F` ?
// result 10 to 25 nM

// query Which IC50 value belongs to N#Cc1ccc(-c2cc(CC3CNCCO3)ccc2N2CCC2)cc1Cl (centres unmarked) ?
// result > 1000 nM

// query Which IC50 value belongs to CC(C)N1CCOC(Cc2ccc(N3CCC3)c(-c3ccc(C#N)c(F)c3)c2)C1 (centres unmarked) ?
// result 100 to 1000 nM

// query Which IC50 value belongs to N#Cc1ccc(-c2cccc(CN3CCCCC34CCCNC4)c2Cl)cc1F (centres unmarked) ?
// result > 1000 nM

---

Tgt: Recombinant human LSD1 (Homo sapiens)
Run description: LSD1 inhibition assay (HTRF LSD1 Histone H3K4 mono-demethylation assay, me1->me0)
Type: biochemical
Particulars: 20 nM recombinant human LSD1, 95 nM H3K4(me1) biotinylated peptide, 15 min preincubation, 60 min at 25° C., read-out: LSD1 inhibition IC50 (nM range)
Recorded metric: IC50

{"Molecule": "N#Cc1ccc(-c2cccc(CN3C[C@]4(N)CC[C@H]3C4)c2C2CC2)cc1F", "Value measured": "10 to 25 nM"}

// query Which IC50 value belongs to `CC1(N)CCN(Cc2cccc(-c3ccc(C#N)c(F)c3)c2C2CC2)CC1` ?
// result 25 to 100 nM

// query Which IC50 value belongs to N#Cc1ccc(-c2cc(CC3CNCCO3)ccc2C2CC2)cc1F (stereo not shown) ?
// result 100 to 1000 nM

// query Which IC50 value belongs to CC1(C)CN(Cc2cccc(-c3ccc(C#N)c(F)c3)c2-c2ccns2)C[C@@H]1N (single isomer, unassigned) ?
// result < 10 nM

// query Which IC50 value belongs to N#Cc1ccc(-c2cccc(CN3[C@@H]4CC[C@H]3[C@@H](N)C4)c2C2=CCOC2)cc1F (racemic) ?
// result < 10 nM

// query Which IC50 value belongs to Cc1sncc1-c1c(CC2CNCCO2)cccc1-c1ccc(C#N)c(F)c1 (stereo not shown) ?
// result 100 to 1000 nM

// query Which IC50 value belongs to CC(c1ccc(N2CCC2)c(-c2ccc(C#N)c(F)c2)c1)C1CNCCO1 (stereo not shown) [Example 144] ?
// result > 1000 nM
